Target: T1, full-length human Notch1 expressed on the cell surface (human, UniProt P46531 19-2555)
T1 construct: whole, on cells; On U-2 OS cells stably overexpressing it (ELISAs, reporter cells); also called cell surface full-length human Notch1; native Notch1 receptor
T1 sequence (P46531 19-2555): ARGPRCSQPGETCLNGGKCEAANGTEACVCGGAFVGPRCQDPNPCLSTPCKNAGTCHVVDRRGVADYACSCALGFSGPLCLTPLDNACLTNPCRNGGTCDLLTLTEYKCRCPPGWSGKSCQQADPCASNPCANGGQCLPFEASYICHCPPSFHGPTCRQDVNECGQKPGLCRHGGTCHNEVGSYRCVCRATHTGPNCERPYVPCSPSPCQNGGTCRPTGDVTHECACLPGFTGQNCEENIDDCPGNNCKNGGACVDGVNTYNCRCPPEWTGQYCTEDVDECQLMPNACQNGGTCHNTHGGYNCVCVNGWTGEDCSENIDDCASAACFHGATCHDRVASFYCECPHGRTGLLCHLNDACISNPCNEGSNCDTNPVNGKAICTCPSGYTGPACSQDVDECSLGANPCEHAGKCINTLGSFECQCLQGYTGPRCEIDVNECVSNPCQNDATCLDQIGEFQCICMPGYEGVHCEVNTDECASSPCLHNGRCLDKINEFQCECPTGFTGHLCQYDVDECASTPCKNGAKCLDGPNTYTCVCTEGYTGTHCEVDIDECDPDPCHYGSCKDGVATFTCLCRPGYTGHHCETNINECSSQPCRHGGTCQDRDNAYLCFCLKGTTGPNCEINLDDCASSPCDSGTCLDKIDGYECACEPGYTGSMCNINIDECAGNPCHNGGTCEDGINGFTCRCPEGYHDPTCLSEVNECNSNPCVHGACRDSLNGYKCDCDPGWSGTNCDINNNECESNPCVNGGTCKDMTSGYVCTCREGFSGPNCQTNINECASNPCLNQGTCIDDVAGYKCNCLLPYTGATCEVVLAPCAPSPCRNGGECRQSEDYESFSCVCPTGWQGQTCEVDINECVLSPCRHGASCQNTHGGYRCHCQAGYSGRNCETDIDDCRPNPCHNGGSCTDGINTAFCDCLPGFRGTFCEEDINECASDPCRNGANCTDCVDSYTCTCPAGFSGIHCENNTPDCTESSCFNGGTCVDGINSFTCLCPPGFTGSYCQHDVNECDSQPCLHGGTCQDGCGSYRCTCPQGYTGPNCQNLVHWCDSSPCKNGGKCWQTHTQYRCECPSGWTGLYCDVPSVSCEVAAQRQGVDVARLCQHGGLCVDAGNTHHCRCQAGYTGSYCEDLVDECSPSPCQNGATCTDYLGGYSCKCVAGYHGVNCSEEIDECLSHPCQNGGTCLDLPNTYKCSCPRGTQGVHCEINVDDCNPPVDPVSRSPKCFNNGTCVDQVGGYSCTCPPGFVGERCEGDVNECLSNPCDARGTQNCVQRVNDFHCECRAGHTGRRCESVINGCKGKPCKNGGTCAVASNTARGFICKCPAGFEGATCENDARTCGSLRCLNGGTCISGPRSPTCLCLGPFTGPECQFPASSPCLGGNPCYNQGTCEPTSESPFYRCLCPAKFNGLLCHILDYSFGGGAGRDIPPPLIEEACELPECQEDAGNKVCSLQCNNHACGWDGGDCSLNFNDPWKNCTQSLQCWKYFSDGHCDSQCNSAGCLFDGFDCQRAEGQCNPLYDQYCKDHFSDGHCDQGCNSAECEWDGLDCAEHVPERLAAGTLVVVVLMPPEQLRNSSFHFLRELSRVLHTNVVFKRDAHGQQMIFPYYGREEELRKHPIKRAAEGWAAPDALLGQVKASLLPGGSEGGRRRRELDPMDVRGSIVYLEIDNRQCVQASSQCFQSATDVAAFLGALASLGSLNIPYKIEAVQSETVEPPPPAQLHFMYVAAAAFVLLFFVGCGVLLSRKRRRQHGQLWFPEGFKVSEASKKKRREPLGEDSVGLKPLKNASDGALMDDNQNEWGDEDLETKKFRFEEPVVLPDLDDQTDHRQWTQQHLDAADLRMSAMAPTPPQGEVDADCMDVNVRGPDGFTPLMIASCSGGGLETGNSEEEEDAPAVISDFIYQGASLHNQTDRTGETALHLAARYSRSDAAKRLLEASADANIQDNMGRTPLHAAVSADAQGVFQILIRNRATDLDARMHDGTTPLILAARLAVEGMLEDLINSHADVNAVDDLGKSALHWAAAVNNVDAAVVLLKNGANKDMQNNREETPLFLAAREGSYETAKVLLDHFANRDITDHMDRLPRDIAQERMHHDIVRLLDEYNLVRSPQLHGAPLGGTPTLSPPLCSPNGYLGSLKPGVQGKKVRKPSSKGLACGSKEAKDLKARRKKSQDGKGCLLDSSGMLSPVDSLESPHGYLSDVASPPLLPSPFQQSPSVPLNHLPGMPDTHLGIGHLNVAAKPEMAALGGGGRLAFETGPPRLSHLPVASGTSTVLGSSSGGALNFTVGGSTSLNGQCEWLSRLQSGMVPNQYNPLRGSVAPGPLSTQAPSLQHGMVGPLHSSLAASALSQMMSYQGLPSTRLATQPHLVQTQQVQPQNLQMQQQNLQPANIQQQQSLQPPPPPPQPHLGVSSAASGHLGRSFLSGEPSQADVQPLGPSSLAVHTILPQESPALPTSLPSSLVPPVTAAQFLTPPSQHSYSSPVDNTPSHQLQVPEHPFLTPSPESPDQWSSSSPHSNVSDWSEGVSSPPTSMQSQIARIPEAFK
Experiment: cell-based ELISA, U-2 OS cells expressing full-length human Notch1
PROPERTY NAME: EC50 (nM)
Give just the numeric value; nM need not be written.

Any idea what EC50 was measured for humanized 438 VH1.1/VL1.5 (antibody, human IgG1, V domains shown) VH: EVQLVESGGGLVQPGGSLRLSCAASGFTFSSFAMAWVRQAPGKGLEWVASISYGGADTYYRDSVKGRFTISRDNAKNSLYLQMNSLRAEDTAVYYCAKDLPYYGYTPFVMDAWGQGTLVTVSS VL: DIQMTQSPSSLSASVGDRVTITCRASQRINTDLHWYQQKPGKAPKLLIKFASQTISGVPSRFSGSGSGTDFTLTISSLQPEDFATYYCQQSNSWPYTFGQGTKLEIK ?
0.219
